target: Somatostatin receptor type 2 (Homo sapiens, UniProt P30874); test: Binding affinity to human somatostatin 2 receptor
Sequence (P30874 whole entry): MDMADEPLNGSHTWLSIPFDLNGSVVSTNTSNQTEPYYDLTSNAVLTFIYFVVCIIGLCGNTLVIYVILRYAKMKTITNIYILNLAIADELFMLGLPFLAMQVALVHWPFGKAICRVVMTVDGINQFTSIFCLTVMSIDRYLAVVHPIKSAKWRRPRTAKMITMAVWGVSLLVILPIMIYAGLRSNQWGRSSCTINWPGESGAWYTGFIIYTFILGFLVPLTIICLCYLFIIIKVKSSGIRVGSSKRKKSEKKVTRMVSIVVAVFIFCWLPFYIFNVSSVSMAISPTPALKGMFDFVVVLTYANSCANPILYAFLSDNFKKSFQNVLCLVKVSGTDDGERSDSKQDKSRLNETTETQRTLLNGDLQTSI
pKi: −log10 of the molar value.
Quantity Name: pKi

Compound	Quantity Name	Reported Value
C[C@@H](c1c[nH]c2ccccc12)C(NC(=O)C1CCCN(C(=O)C(O)(c2ccccc2)c2ccccc2)C1)C(=O)N[C@@H](CCCCN)C(=O)OC(C)(C)C (stereo partly specified)	pKi	8.55
C[C@@H](c1c[nH]c2ccccc12)C(NC(=O)C1CCCN(Cc2ccc(F)c(F)c2)C1)C(=O)N[C@@H](CCCCN)C(=O)OC(C)(C)C (stereo partly specified)	pKi	8.54
COc1cccc(CN2CCCC(C(=O)NC(C(=O)N[C@@H](CCCCN)C(=O)OC(C)(C)C)[C@@H](C)c3c[nH]c4ccccc34)C2)c1 (stereo partly specified)	pKi	8.00
C[C@@H](c1c[nH]c2ccccc12)C(NC(=O)C1CCCN(Cc2ccccc2-c2ccccc2)C1)C(=O)N[C@@H](CCCCN)C(=O)OC(C)(C)C (stereo partly specified)	pKi	7.68
C[C@@H](c1c[nH]c2ccccc12)C(NC(=O)C1CCCN(Cc2cccc(F)c2F)C1)C(=O)N[C@@H](CCCCN)C(=O)OC(C)(C)C (stereo partly specified)	pKi	8.24
C[C@@H](c1c[nH]c2ccccc12)C(NC(=O)C1CCCN(C(=O)c2ccc3[nH]cnc3c2)C1)C(=O)N[C@@H](CCCCN)C(=O)OC(C)(C)C (stereo partly specified)	pKi	7.07
C[C@@H](c1c[nH]c2ccccc12)C(NC(=O)C1CCCN(C(=O)Cc2cc(F)cc(F)c2)C1)C(=O)N[C@@H](CCCCN)C(=O)OC(C)(C)C (stereo partly specified)	pKi	8.64
CC(C)CC(=O)N1CCCC(C(=O)NC(C(=O)N[C@@H](CCCCN)C(=O)OC(C)(C)C)[C@@H](C)c2c[nH]c3ccccc23)C1 (stereo partly specified)	pKi	7.64
C[C@@H](c1c[nH]c2ccccc12)C(NC(=O)C1CCCN(C(=O)Cc2ccc3c(c2)OCO3)C1)C(=O)N[C@@H](CCCCN)C(=O)OC(C)(C)C (stereo partly specified)	pKi	8.00
COc1ccc(S(=O)(=O)N2CCCC(C(=O)NC(C(=O)N[C@@H](CCCCN)C(=O)OC(C)(C)C)[C@@H](C)c3c[nH]c4ccccc34)C2)cc1OC (stereo partly specified)	pKi	7.64
C[C@@H](c1c[nH]c2ccccc12)C(NC(=O)C1CCCN(C(=O)c2ccc3c(c2)OCO3)C1)C(=O)N[C@@H](CCCCN)C(=O)OC(C)(C)C (stereo partly specified)	pKi	7.44
C[C@@H](c1c[nH]c2ccccc12)C(NC(=O)C1CCCN(C(=O)NC2CCCCC2)C1)C(=O)N[C@@H](CCCCN)C(=O)OC(C)(C)C (stereo partly specified)	pKi	8.14
C[C@@H](c1c[nH]c2ccccc12)C(NC(=O)C1CCCN(Cc2ccc3c(c2Cl)OCO3)C1)C(=O)N[C@@H](CCCCN)C(=O)OC(C)(C)C (stereo partly specified)	pKi	7.92
COc1cccc(NC(=O)N2CCCC(C(=O)NC(C(=O)N[C@@H](CCCCN)C(=O)OC(C)(C)C)[C@@H](C)c3c[nH]c4ccccc34)C2)c1 (stereo partly specified)	pKi	8.05
C[C@@H](c1c[nH]c2ccccc12)C(NC(=O)C1CCCN(Cc2ccc3ccccc3c2)C1)C(=O)N[C@@H](CCCCN)C(=O)OC(C)(C)C (stereo partly specified)	pKi	7.77
C[C@@H](c1c[nH]c2ccccc12)C(NC(=O)C1CCCN(C(=O)c2cccnc2)C1)C(=O)N[C@@H](CCCCN)C(=O)OC(C)(C)C (stereo partly specified)	pKi	7.07
C[C@@H](c1c[nH]c2ccccc12)C(NC(=O)C1CCCN(Cc2ccccc2)C1)C(=O)N[C@@H](CCCCN)C(=O)OC(C)(C)C (stereo partly specified)	pKi	8.34
C[C@@H](c1c[nH]c2ccccc12)C(NC(=O)C1CCCN(C(c2ccccc2)c2ccccc2)C1)C(=O)N[C@@H](CCCCN)C(=O)OC(C)(C)C (stereo partly specified)	pKi	7.51
C[C@@H](c1c[nH]c2ccccc12)C(NC(=O)C1CCCNC1)C(=O)N[C@@H](CCCCN)C(=O)OC(C)(C)C (stereo partly specified)	pKi	6.75
COC(=O)[C@H](Cc1ccccc1)NC(=O)N1CCCC(C(=O)NC(C(=O)N[C@@H](CCCCN)C(=O)OC(C)(C)C)[C@@H](C)c2c[nH]c3ccccc23)C1 (stereo partly specified)	pKi	8.07
CC(C)NC(=O)N1CCCC(C(=O)NC(C(=O)N[C@@H](CCCCN)C(=O)OC(C)(C)C)[C@@H](C)c2c[nH]c3ccccc23)C1 (stereo partly specified)	pKi	7.02
C[C@@H](c1c[nH]c2ccccc12)C(NC(=O)C1CCCN(S(=O)(=O)c2ccc(F)cc2)C1)C(=O)N[C@@H](CCCCN)C(=O)OC(C)(C)C (stereo partly specified)	pKi	7.96
CC(C)S(=O)(=O)N1CCCC(C(=O)NC(C(=O)N[C@@H](CCCCN)C(=O)OC(C)(C)C)[C@@H](C)c2c[nH]c3ccccc23)C1 (stereo partly specified)	pKi	7.46
CC(=O)Nc1cccc(C(=O)N2CCCC(C(=O)NC(C(=O)N[C@@H](CCCCN)C(=O)OC(C)(C)C)[C@@H](C)c3c[nH]c4ccccc34)C2)c1 (stereo partly specified)	pKi	7.33
C[C@@H](c1c[nH]c2ccccc12)C(NC(=O)C1CCCN(S(=O)(=O)c2cccs2)C1)C(=O)N[C@@H](CCCCN)C(=O)OC(C)(C)C (stereo partly specified)	pKi	7.85
C[C@@H](c1c[nH]c2ccccc12)C(NC(=O)C1CCCN(C(=O)Nc2ccccc2)C1)C(=O)N[C@@H](CCCCN)C(=O)OC(C)(C)C (stereo partly specified)	pKi	7.96

====

In this section we review reported Ki values for a set of compounds.
biological target: Somatostatin receptor type 2 (Homo sapiens, UniProt P30874); experiment: Binding affinity to human somatostatin 2 receptor
Quantity Name: Ki (nM)

Compound	Reported Value
C[C@@H](c1c[nH]c2ccccc12)C(NC(=O)C1CCCN(C(=O)c2ccccc2)C1)C(=O)N[C@@H](CCCCN)C(=O)OC(C)(C)C (some centres undefined)	10
COC(=O)c1cccc(CN2CCCC(C(=O)NC(C(=O)N[C@@H](CCCCN)C(=O)OC(C)(C)C)[C@@H](C)c3c[nH]c4ccccc34)C2)c1 (some centres undefined)	11
C[C@@H](c1c[nH]c2ccccc12)C(NC(=O)C1CCCN(Cc2cccc(F)c2)C1)C(=O)N[C@@H](CCCCN)C(=O)OC(C)(C)C (some centres undefined)	5
C[C@@H](c1c[nH]c2ccccc12)C(NC(=O)C1CCCN(C(=O)C(c2ccccc2)c2ccccc2)C1)C(=O)N[C@@H](CCCCN)C(=O)OC(C)(C)C (some centres undefined)	5

====

biological target: Somatostatin receptor type 2 (Homo sapiens, UniProt P30874); assay: Binding affinity to Somatostatin receptor type 2 was determined
pKi: −log10 of the molar value.
Quantity Name: pKi

>>> df
                                   compound                               system_name  quantity_name  reported_value
0  CC(C)C(=O)N1CCC(C(=O)NC(C(=O)N[C@@H](CCCCN)C(=O)OC(C)(C)C)[C@@H](C)c2c[nH]c3ccccc23)CC1 (some centres undefined)  Somatostatin receptor type 2 (Homo sapiens, UniProt P30874)            pKi            7.82
1  C[C@@H](c1c[nH]c2ccccc12)C(NC(=O)C1CCN(C(=O)c2ccccc2)CC1)C(=O)N[C@@H](CCCCN)C(=O)OC(C)(C)C (some centres undefined)  Somatostatin receptor type 2 (Homo sapiens, UniProt P30874)            pKi            9.30
2  C[C@@H](c1c[nH]c2ccccc12)C(NC(=O)C1CCN(Cc2ccccc2)CC1)C(=O)N[C@@H](CCCCN)C(=O)OC(C)(C)C (some centres undefined)  Somatostatin receptor type 2 (Homo sapiens, UniProt P30874)            pKi            8.60
3  CC(C)S(=O)(=O)N1CCC(C(=O)NC(C(=O)N[C@@H](CCCCN)C(=O)OC(C)(C)C)[C@@H](C)c2c[nH]c3ccccc23)CC1 (some centres undefined)  Somatostatin receptor type 2 (Homo sapiens, UniProt P30874)            pKi            6.92

====

biological target: Somatostatin receptor type 5 (Homo sapiens)
Sequence (P35346 whole entry): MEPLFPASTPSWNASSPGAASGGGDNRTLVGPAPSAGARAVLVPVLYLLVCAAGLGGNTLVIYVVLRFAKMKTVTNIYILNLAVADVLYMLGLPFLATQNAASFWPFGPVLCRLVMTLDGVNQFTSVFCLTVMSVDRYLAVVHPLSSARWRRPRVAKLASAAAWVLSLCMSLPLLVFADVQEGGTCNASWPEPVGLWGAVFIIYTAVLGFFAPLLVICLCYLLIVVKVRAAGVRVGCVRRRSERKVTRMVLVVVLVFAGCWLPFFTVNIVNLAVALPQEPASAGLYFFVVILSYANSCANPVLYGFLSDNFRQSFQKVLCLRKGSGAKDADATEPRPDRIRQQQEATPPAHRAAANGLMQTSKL
In this section we review reported Ki values for a set of compounds.
Quantity Name: Ki (nM)

                                   compound  reported_value
0  C[C@@H](c1c[nH]c2ccccc12)C(NC(=O)C1CCN(Cc2ccccc2)CC1)C(=O)N[C@@H](CCCCN)C(=O)OC(C)(C)C (stereo partly drawn)             333
1  CC(C)C(=O)N1CCC(C(=O)NC(C(=O)N[C@@H](CCCCN)C(=O)OC(C)(C)C)[C@@H](C)c2c[nH]c3ccccc23)CC1 (stereo partly drawn)            2860
2  C[C@@H](c1c[nH]c2ccccc12)C(NC(=O)C1CCN(C(=O)c2ccccc2)CC1)C(=O)N[C@@H](CCCCN)C(=O)OC(C)(C)C (stereo partly drawn)             416
